Molecular target: recombinant PRL-2 (Homo sapiens)
Construct: 6xHis (N, cleaved yes); made in house; host or cells: E. coli One Shot BL21 Star
Sequence (Q12974 whole entry): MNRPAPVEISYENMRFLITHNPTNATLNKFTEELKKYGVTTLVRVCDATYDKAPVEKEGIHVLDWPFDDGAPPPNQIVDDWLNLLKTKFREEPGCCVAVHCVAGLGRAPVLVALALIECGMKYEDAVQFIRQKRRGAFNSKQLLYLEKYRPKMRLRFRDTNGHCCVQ
Test: In vitro phosphatase assay (DiFMUP hydrolysis), PRL-2;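 further: PRL-2 activity read as DiFMUP hydrolysis after 20 min at room temperature with drug, enzyme first pre-reduced at 4 °C for 20 min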
Assay type: biochemical
Conditions: FDA-approved drug screen; compared to DMSO
Structures can show the parent of a compound that is named as a salt.
endpoint: % Phosphatase Activity (compared to DMSO) PRL-2 (%)

- compound: "CCCCOc1ccc(CC(=O)NO)cc1"
  assay result: 110
- compound: "O=C(O)CCc1nc(-c2ccccc2)c(-c2ccccc2)o1"
  assay result: 106
- compound: "O=C1CN2Cc3c(ccc(Cl)c3Cl)N=C2N1 [Anagrelide HCl]"
  assay result: 91
- compound: "Cl.Cl.Fc1ccc(C(c2ccc(F)cc2)N2CCN(C/C=C/c3ccccc3)CC2)cc1 [Flunarizine 2HCl]"
  assay result: 107
- compound: "C1=N/C2=N/c3ccc(OCCN4CCCC4)c(c3)COC/C=C/COCc3cccc(c3)C(=C1)N2 [Pacritinib (SB1518)]"
  assay result: 98

----------
Molecular target: recombinant PRL-3 (Homo sapiens, UniProt O75365)
Construct: 6xHis (N, cleaved yes); made in house; host or cells: E. coli One Shot BL21 Star
Sequence (O75365 whole entry): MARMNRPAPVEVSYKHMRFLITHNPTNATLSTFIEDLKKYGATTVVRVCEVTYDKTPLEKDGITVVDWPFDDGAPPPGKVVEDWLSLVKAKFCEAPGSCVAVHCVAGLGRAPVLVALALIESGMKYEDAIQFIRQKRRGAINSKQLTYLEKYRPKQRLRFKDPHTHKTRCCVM
Test: In vitro phosphatase assay (DiFMUP hydrolysis), PRL-3; further: test concentration or dose not given here
Type: biochemical
Settings: FDA-approved drug screen; compared to DMSO
Counter-ions that a name gives are not always drawn.
Parameter: % Phosphatase Activity (compared to DMSO) PRL-3. Scope: all listed entries.
endpoint: % Phosphatase Activity (compared to DMSO) PRL-3 (%)

- compound: "CCCCCCCCCCCC1=C(O)C(=O)C=C(O)C1=O [Embelin, reference compound]"
  target of assay: "recombinant PRL-3 (Homo sapiens, UniProt O75365)"
  units of measure: "%"
  assay result: 28
- compound: "C[C@]12CC[C@@H]3c4ccc(O)cc4CC[C@H]3[C@@H]1CCC2=O [Estrone]"
  target of assay: "recombinant PRL-3 (Homo sapiens, UniProt O75365)"
  units of measure: "%"
  assay result: 76
- compound: "O=C(CCCN1CCC(O)(c2ccc(Cl)cc2)CC1)c1ccc(F)cc1 [Haloperidol]"
  target of assay: "recombinant PRL-3 (Homo sapiens, UniProt O75365)"
  units of measure: "%"
  assay result: 93
- compound: "Cc1ccccc1N1C(=O)c2cc(S(N)(=O)=O)c(Cl)cc2NC1C (centres unmarked) [Metolazone]"
  target of assay: "recombinant PRL-3 (Homo sapiens, UniProt O75365)"
  units of measure: "%"
  assay result: 121
- compound: "C[C@H](Nc1ncnc2nc[nH]c12)c1cc2cccc(Cl)c2c(=O)n1-c1ccccc1 [IPI-145 (INK1197)]"
  target of assay: "recombinant PRL-3 (Homo sapiens, UniProt O75365)"
  units of measure: "%"
  assay result: 97
- compound: "Oc1c(Cl)cc(Cl)c(Cl)c1Cc1c(O)c(Cl)cc(Cl)c1Cl [Hexachlorophene, reference compound]"
  target of assay: "recombinant PRL-3 (Homo sapiens, UniProt O75365)"
  units of measure: "%"
  assay result: -4
- compound: "CC(=O)Oc1ccccc1C(=O)Nc1ncc([N+](=O)[O-])s1 [Nitazoxanide]"
  target of assay: "recombinant PRL-3 (Homo sapiens, UniProt O75365)"
  units of measure: "%"
  assay result: 62
- compound: "CO[C@@]1(NC(=O)C(C(=O)O)c2ccc(O)cc2)C(=O)N2C(C(=O)O)=C(CSc3nnnn3C)CO[C@@H]21 (some centres unmarked) [Moxalactam Disodium]"
  target of assay: "recombinant PRL-3 (Homo sapiens, UniProt O75365)"
  units of measure: "%"
  assay result: 89
- compound: "CCOC(=O)[C@H](CCc1ccccc1)N[C@@H](C)C(=O)N1Cc2ccccc2C[C@H]1C(=O)O [Quinapril HCl]"
  target of assay: "recombinant PRL-3 (Homo sapiens, UniProt O75365)"
  units of measure: "%"
  assay result: 80
- compound: "CC(=O)c1c(C)c2cnc(Nc3ccc(N4CCNCC4)cn3)nc2n(C2CCCC2)c1=O.Cl [Palbociclib (PD-0332991) HCl]"
  target of assay: "recombinant PRL-3 (Homo sapiens, UniProt O75365)"
  units of measure: "%"
  assay result: 102
- compound: "C=C1/C(=C\\C=C2/CCC[C@]3(C)[C@@H]([C@H](C)/C=C/[C@H](C)C(C)C)CC[C@@H]23)C[C@@H](O)C[C@@H]1O [Doxercalciferol]"
  target of assay: "recombinant PRL-3 (Homo sapiens, UniProt O75365)"
  units of measure: "%"
  assay result: 71
- compound: "CC(C)NC[C@@H](O)COc1ccc(CC(N)=O)cc1 [(R)-(+)-Atenolol]"
  target of assay: "recombinant PRL-3 (Homo sapiens, UniProt O75365)"
  units of measure: "%"
  assay result: 74
- compound: "CCN(CC)C(=O)C1(c2ccccc2)CC1CN.Cl (centres unmarked) [Milnacipran HCl]"
  target of assay: "recombinant PRL-3 (Homo sapiens, UniProt O75365)"
  units of measure: "%"
  assay result: 80
- compound: "Cc1nnc(C(=O)NC(C)(C)c2nc(C(=O)NCc3ccc(F)cc3)c(O)c(=O)n2C)o1 [Raltegravir (MK-0518)]"
  target of assay: "recombinant PRL-3 (Homo sapiens, UniProt O75365)"
  units of measure: "%"
  assay result: 90
- compound: "CC(=O)OCC(=O)[C@@]1(O)CC[C@H]2[C@@H]3CCC4=CC(=O)C=C[C@]4(C)[C@H]3[C@@H](O)C[C@@]21C [Prednisolone Acetate]"
  target of assay: "recombinant PRL-3 (Homo sapiens, UniProt O75365)"
  units of measure: "%"
  assay result: 80
- compound: "CN1CCN(c2cc3c(cc2F)c(=O)c(C(=O)O)cn3-c2ccc(F)cc2)CC1 [Difloxacin HCl]"
  target of assay: "recombinant PRL-3 (Homo sapiens, UniProt O75365)"
  units of measure: "%"
  assay result: 114
- compound: "C#Cc1cccc(Nc2ncnc3cc(OCCOC)c(OCCOC)cc23)c1.Cl [Erlotinib HCl (OSI-744)]"
  target of assay: "recombinant PRL-3 (Homo sapiens, UniProt O75365)"
  units of measure: "%"
  assay result: 87
- compound: "CCCN(CCC)C(=O)C1=Cc2ccc(-c3ccc(C(=O)N4CCCC4)cc3)cc2N=C(N)C1 [Motolimod (VTX-2337)]"
  target of assay: "recombinant PRL-3 (Homo sapiens, UniProt O75365)"
  units of measure: "%"
  assay result: 106
- compound: "CCCCCCCCCCC[C@@H](C[C@@H]1OC(=O)[C@H]1CCCCCC)OC(=O)[C@H](CC(C)C)NC=O [Orlistat]"
  target of assay: "recombinant PRL-3 (Homo sapiens, UniProt O75365)"
  units of measure: "%"
  assay result: 79
- compound: "CCOC(=O)[C@H](CCc1ccccc1)N[C@H]1CCCN2CCC[C@@H](C(=O)O)N2C1=O [Cilazapril Monohydrate]"
  target of assay: "recombinant PRL-3 (Homo sapiens, UniProt O75365)"
  units of measure: "%"
  assay result: 73
- compound: "CC(C)[C@H]1C(=O)N[C@@H](CCCN=C(N)N)C(=O)NCC(=O)N[C@@H](CC(=O)O)C(=O)N[C@H](Cc2ccccc2)C(=O)N1C [Cilengitide]"
  target of assay: "recombinant PRL-3 (Homo sapiens, UniProt O75365)"
  units of measure: "%"
  assay result: 96
- compound: "Cc1c(F)cc(C(=O)NC2CC2)cc1-c1ccc(C(=O)NCC(C)(C)C)cn1 [Losmapimod (GW856553X)]"
  target of assay: "recombinant PRL-3 (Homo sapiens, UniProt O75365)"
  units of measure: "%"
  assay result: 103
- compound: "CCN1CCN(C(=O)N[C@@H](C(=O)N[C@@H]2C(=O)N3C(C(=O)O)=C(CSc4nnnn4C)CS[C@H]23)c2ccc(O)cc2)C(=O)C1=O [Cefoperazone]"
  target of assay: "recombinant PRL-3 (Homo sapiens, UniProt O75365)"
  units of measure: "%"
  assay result: 89
- compound: "CCCc1cc(C(N)=S)ccn1 [Protionamide]"
  target of assay: "recombinant PRL-3 (Homo sapiens, UniProt O75365)"
  units of measure: "%"
  assay result: 97
- compound: "CN(C)CC/C=C1/c2ccccc2Sc2ccc(Cl)cc21 [Chlorprothixene]"
  target of assay: "recombinant PRL-3 (Homo sapiens, UniProt O75365)"
  units of measure: "%"
  assay result: 93
- compound: "COc1cccc2c1C(=O)c1c(O)c3c(c(O)c1C2=O)C[C@@](O)(C(=O)CO)C[C@@H]3O[C@H]1C[C@H](N)[C@H](O)[C@H](C)O1 [Doxorubicin (Adriamycin)]"
  target of assay: "recombinant PRL-3 (Homo sapiens, UniProt O75365)"
  units of measure: "%"
  assay result: 73
- compound: "Oc1ccc(Cl)c2cccnc12 [Cloxiquine]"
  target of assay: "recombinant PRL-3 (Homo sapiens, UniProt O75365)"
  units of measure: "%"
  assay result: 90
- compound: "O=P1(NCCCl)OCCCN1CCCl (centres unmarked) [Ifosfamide]"
  target of assay: "recombinant PRL-3 (Homo sapiens, UniProt O75365)"
  units of measure: "%"
  assay result: 78
- compound: "CCN[C@@H]1C[C@H](N)[C@@H](O[C@H]2OC(CN)=CC[C@H]2N)[C@H](O)[C@H]1O[C@H]1OC[C@](C)(O)[C@H](NC)[C@H]1O.CCN[C@@H]1C[C@H](N)[C@@H](O[C@H]2OC(CN)=CC[C@H]2N)[C@H](O)[C@H]1O[C@H]1OC[C@](C)(O)[C@H](NC)[C@H]1O.O=S(=O)(O)O.O=S(=O)(O)O.O=S(=O)(O)O.O=S(=O)(O)O.O=S(=O)(O)O [Netilmicin Sulfate]"
  target of assay: "recombinant PRL-3 (Homo sapiens, UniProt O75365)"
  units of measure: "%"
  assay result: 111

This collection of values is drawn from paper PMC8119466.
